# measurementNotes: logP by HPLC on reversed-phase column (C 18), EEC Directive 79/831 Annex V.A8, Method B (0.1% aqueous formic acid / acetonitrile, 40°C)
# Format: physicochemical
# conditionSet: c18 reversed-phase hplc; LogP method B: HPLC reversed-phase C 18, 40°C, 0.1% aqueous formic acid / acetonitrile
Hi there, I'd appreciate the recorded chromatographic logP for every entry that follows.

Suppose we examine the compound `Cn1nc(C(F)(F)F)c(C(=O)N(C2CC2)S(=O)(=O)c2ccc(Cl)c(Cl)c2Cl)c1F` ; what chromatographic logP value has been reported?
4.1

Which chromatographic logP is reported for this compound? `COc1nn(C)c(Cl)c1C(=O)N(C1CC1)S(=O)(=O)c1ccc(Cl)c(Cl)c1Cl`
3.8

chromatographic logP for `Cc1cc(C(=O)N(C2CC2)S(=O)(=O)c2cccc(Cl)c2Cl)nn1C` ?
2.7

====

# measurementNotes: logP by HPLC on reversed-phase column (C 18), EEC Directive 79/831 Annex V.A8, Method B (0.1% aqueous formic acid / acetonitrile, 40°C)
# Type: physicochemical
# conditionSet: c18 reversed-phase hplc; LogP method B: HPLC reversed-phase C 18, 40°C, 0.1% aqueous formic acid / acetonitrile
reportedProperty: chromatographic logP
# output: bare number, no unit

Fill in: chromatographic logP of `COc1nn(C)cc1C(=O)N(C1CC1)S(=O)(=O)c1c(Cl)cc(C(F)(F)F)cc1Cl` is ___
3

Name the recorded chromatographic logP for `COc1nn(C)cc1C(=O)N(C1CC1)S(=O)(=O)c1ccc(Oc2cccc(Cl)c2)cc1Br` .
3.7

Record request: chromatographic logP value, item `Cc1nn(C)c(Oc2ccc(Cl)cc2)c1C(=O)N(C1CC1)S(=O)(=O)c1ccccc1Cl`
3.6

What measured chromatographic logP goes with `Cn1nc(C(F)(F)F)c(C(=O)N(C2CC2)S(=O)(=O)c2c(Cl)sc(Cl)c2Br)c1F` ?
3.9

Would you mind telling me what chromatographic logP value was observed for `Cc1nocc1C(=O)N(C1CC1)S(=O)(=O)c1ccc(Cl)c(Cl)c1Cl` ?
3.6

Need chromatographic logP, item `Cn1nc(-c2ccccc2)c(C(=O)N(C2CC2)S(=O)(=O)c2cccc(Cl)c2Cl)c1F`
3.7

Name the recorded chromatographic logP for `CCOc1nn(C)cc1C(=O)N(C1CC1)S(=O)(=O)c1ccc(Oc2ccc(F)c(Cl)c2)cc1Cl` .
4

Reported chromatographic logP for `COc1nn(C)cc1C(=O)N(C1CC1)S(=O)(=O)c1c(Cl)cc(Cl)cc1Cl` : what is it?
2.7

====

# measurementNotes: logP by HPLC on reversed-phase column (C 18), EEC Directive 79/831 Annex V.A8, Method A (0.1% aqueous phosphoric acid / acetonitrile, 43°C)
# Assay type: physicochemical
# conditionSet: c18 reversed-phase hplc; LogP method A: HPLC reversed-phase C 18, 43°C, 0.1% aqueous phosphoric acid / acetonitrile
Can you tell me chromatographic logP for the items I'm about to list?
The reply should be a number, written without any unit.

Query: chromatographic logP; subject: O=C(c1cccnc1Cl)N(C1CC1)S(=O)(=O)c1cccc(Cl)c1 [compound 643]
2.91

Name the reported chromatographic logP value associated with the compound Cc1nn(C)c(F)c1C(=O)N(C1CC1)S(=O)(=O)c1ccc(Cl)cc1Cl [compound 186]
2.94

Please give the measured chromatographic logP for this compound: Cc1nn(C)c(F)c1C(=O)N(C1CC1)S(=O)(=O)c1cccc(Cl)c1 [compound 176]
2.82

What measured chromatographic logP goes with COCCn1c(C)c(C(=O)N(C2CC2)S(=O)(=O)c2ccc(Cl)cc2Cl)sc1=O [compound 620] ?
2.01

Sample Cc1nn(C)c(F)c1C(=O)N(C1CC1)S(=O)(=O)c1ccc(Cl)c(Cl)c1 [compound 178] — what was its chromatographic logP?
3.35

I would be grateful if you could share the reported chromatographic logP for CCc1onc(C(C)C)c1C(=O)N(C1CC1)S(=O)(=O)c1ccc(Cl)cc1Cl [compound 596] .
4.41

====

For each of the compounds below, state its chromatographic logP.
# measurementNotes: logP by HPLC on reversed-phase column (C 18), EEC Directive 79/831 Annex V.A8, Method B (0.1% aqueous formic acid / acetonitrile, 40°C)
# Type: physicochemical
# conditionSet: c18 reversed-phase hplc; LogP method B: HPLC, 40°C, 0.1% aqueous formic acid and acetonitrile, gradient 10% to 90% acetonitrile
In your answer, state the number alone without any accompanying words.

Consider the compound Cc1nn(C)c(F)c1C(=O)N(C1(c2ccccc2)CC1)S(=O)(=O)c1cccc(Cl)c1Cl [compound 670] and give its measured chromatographic logP.
4.1

Bench note: what chromatographic logP did COC(=O)C1(N(C(=O)c2c(C(F)(F)F)nn(C)c2F)S(=O)(=O)c2ccc(Cl)c(Cl)c2Cl)CC1 [compound 667] show?
4.04

====

# measurementNotes: logP by HPLC on reversed-phase column (C 18), EEC Directive 79/831 Annex V.A8, Method B (0.1% aqueous formic acid / acetonitrile, 40°C)
# Type: physicochemical
# conditionSet: c18 reversed-phase hplc; LogP method B: HPLC reversed-phase C 18, 40°C, 0.1% aqueous formic acid / acetonitrile
Could you please report measured chromatographic logP for the items listed next?
Output: the number by itself.

# chromatographic logP lookup, item `COc1nn(C)cc1C(=O)N(C1CC1)S(=O)(=O)c1ccc(Oc2ccc(Br)c(Cl)c2)cc1Br`
4.2

Entry `Cn1cc(C(=O)N(C2CC2)S(=O)(=O)c2cccc(Cl)c2Cl)c(C(F)F)n1` has what chromatographic logP?
2.9

Form field: reported chromatographic logP of `CCOc1nn(C)cc1C(=O)N(C1CC1)S(=O)(=O)c1ccc(Oc2ccc(Cl)cc2Cl)c(Cl)c1`
4.7

Endpoint output: chromatographic logP of `CCc1nn(C)c(F)c1C(=O)N(C1CC1)S(=O)(=O)c1cnc(Cl)c(Br)c1` . Value?
3.5

====

# measurementNotes: logP by HPLC on reversed-phase column (C 18), EEC Directive 79/831 Annex V.A8, Method A (0.1% aqueous phosphoric acid / acetonitrile, 43°C)
# Format: physicochemical
# conditionSet: c18 reversed-phase hplc; LogP method A: HPLC reversed-phase C 18, 43°C, 0.1% aqueous phosphoric acid / acetonitrile
Returns: string. Value is label 1 if measured chromatographic logP is below 3, and label 0 if it is greater than or equal to it.

Just wondering, is chromatographic logP of `CC(C)c1c(C(=O)N(C2CC2)S(=O)(=O)c2ccc(Cl)cc2Cl)sc(=O)n1C1CC1` below 3?
label 1

Consider the molecule `CCc1onc(C(C)C)c1C(=O)N(C1CC1)S(=O)(=O)c1ccc(Cl)c(C(F)(F)F)c1` . Is its chromatographic logP strictly less than 3?
label 0

Given the entry `Cc1nn(C)c(F)c1C(=O)N(C1CC1)S(=O)(=O)c1ccc(Cl)c(Cl)c1Cl` , would its reported chromatographic logP be below 3?
label 0

Is chromatographic logP of `CCOC(=O)c1[nH]c(C)c(C(=O)N(C2CC2)S(=O)(=O)c2ccc(Cl)c(C(F)(F)F)c2)c1C` strictly below 3?
label 0

Does this molecule meet the criterion chromatographic logP < 3? `Cc1nn(C)c(C)c1C(=O)N(C1CC1)S(=O)(=O)c1ccc(Cl)cc1Cl`
label 1

====

# measurementNotes: logP by HPLC on reversed-phase column (C 18), EEC Directive 79/831 Annex V.A8, Method B (0.1% aqueous formic acid / acetonitrile, 40°C)
# Assay type: physicochemical
# conditionSet: c18 reversed-phase hplc; LogP method B: HPLC reversed-phase C 18, 40°C, 0.1% aqueous formic acid / acetonitrile
reportedProperty: chromatographic logP

If you can, please state the reported chromatographic logP value of `CCc1nn(C)c(F)c1C(=O)N(C1CC1)S(=O)(=O)c1ccc(Cl)c(Cl)c1` .
3.8

Reported chromatographic logP for `Cn1nc(C2CC2)c(C(=O)N(C2CC2)S(=O)(=O)c2ccc(Cl)c(Cl)c2Cl)c1F` : what is it?
3.9

// chromatographic logP lookup, key: `CCc1nn(C)c(F)c1C(=O)N(C1CC1)S(=O)(=O)c1cc(Cl)cc(Cl)c1`
3.9

Which chromatographic logP is reported for this compound? `CC(C)c1nn(C)c(F)c1C(=O)N(C1CC1)S(=O)(=O)c1ccc(C(F)(F)F)cc1Cl`
4

Any idea what chromatographic logP was measured for `COc1nn(C)cc1C(=O)N(C1CC1)S(=O)(=O)c1cnc(Cl)c(Br)c1` ?
2

Consider the compound shown here: `O=C(c1ccsc1I)N(C1CC1)S(=O)(=O)c1cccc(Cl)c1Cl` What is its recorded chromatographic logP?
3.8

What value of chromatographic logP has been reported for the following compound? `COc1nn(C)cc1C(=O)N(C1CC1)S(=O)(=O)c1csc(Cl)c1Cl`
3.1

Form field: reported chromatographic logP of `CCOc1nn(C)cc1C(=O)N(C1CC1)S(=O)(=O)c1ccc(Oc2ccc(OC)c(OC)c2)cc1Cl`
3.2

# credit: patent EP2540163A1
